Ref: the supplement of paper PMC12137928

# Tested on: HCT116
# recorded_conditions: 72 h; ICRF193 0 nM
Structures can show the parent of a compound that is named as a salt.
measurement_name: IC50 cell viability

Previously resolved entries follow.
Query string: Tell me reported IC50 cell viability for COc1cccc2c1C(=O)c1c(O)c3c(c(O)c1C2=O)C[C@@](O)(C(=O)CO)C[C@@H]3O[C@H]1C[C@H](N)[C@@H](O)[C@H](C)O1 [Epirubicin hydrochloride] , tested with HCT116.
Result string: 0.73 µM

Query string: Further, for CCOc1nc2cccc(C(=O)OCc3oc(=O)oc3C)c2n1Cc1ccc(-c2ccccc2-c2noc(=O)[nH]2)cc1 ?
Result string: > 45.8 µM

Query string: Further, for CCN1CCC[C@H]1CNC(=O)c1cc(S(N)(=O)=O)ccc1OC [Levosulpiride] ?
Result string: > 45.8 µM

Query string: Further, for NCCC(=O)[N-][C@@H](Cc1c[nH]cn1)C(=O)[O-].[Zn+2] ?
Result string: > 45.8 µM

Query string: Further, for COC(=O)N[C@H](C(=O)N[C@@H](Cc1ccccc1)[C@@H](O)CN(Cc1ccc(-c2ccccn2)cc1)NC(=O)[C@@H](NC(=O)OC)C(C)(C)C)C(C)(C)C ?
Result string: > 45.8 µM

Query string: Further, for CC[C@H]1OC(=O)[C@H](C)[C@@H](O[C@H]2C[C@@](C)(OC)[C@@H](O)[C@H](C)O2)[C@H](C)[C@@H](O[C@@H]2O[C@H](C)C[C@H](N(C)C)[C@H]2O)[C@](C)(OC)C[C@@H](C)C(=O)[C@H](C)[C@@H](O)[C@]1(C)O ?
Result string: > 45.8 µM

Query string: Further, for CCOC(=O)NNc1ccc(N(CC)CC(C)O)nn1 (stereo not drawn) ?
Result string: > 45.8 µM

Query string: Further, for FC(F)(F)C(F)(F)C(F)(F)C(F)(F)C(F)(F)C(F)(F)C(F)(F)C(F)(F)Br ?
Result string: > 45.8 µM

New cases:
Query string: Tell me reported IC50 cell viability for CS(=O)(=O)Nc1cc2occ(NC=O)c(=O)c2cc1Oc1ccccc1 , tested with HCT116.
Result string: > 45.8 µM

Query string: Further, for COC(=O)C[C@](O)(CCCC(C)(C)O)C(=O)O[C@@H]1C(OC)=C[C@]23CCCN2CCc2cc4c(cc2[C@H]13)OCO4 [Omacetaxine mepesuccinate] ?
Result string: 0.0651 µM

Query string: Further, for Cc1cc(C)cc(OCC2CNC(=O)O2)c1 (stereo not drawn) ?
Result string: > 45.8 µM

Query string: Further, for C[C@]12CC[C@H]3[C@@H](CCC4=CC(=O)CC[C@@H]43)[C@@H]1CC[C@@H]2OC(=O)CCc1ccccc1 [Nandrolone phenpropionate] ?
Result string: > 45.8 µM

Query string: Further, for CNC(C)C(O)c1ccccc1 (stereo not drawn) [RACEPHEDRINE HYDROCHLORIDE] ?
Result string: > 45.8 µM
